Molecular target: 5-HT3 receptor (Mus musculus)
Construct: membrane fraction prepared from rat N1E-115 cells; endogenous in cells; host or cells: N1E-115 cells, membrane fraction
Sequence (P23979 24-483 isoform P23979-2 limits assumed): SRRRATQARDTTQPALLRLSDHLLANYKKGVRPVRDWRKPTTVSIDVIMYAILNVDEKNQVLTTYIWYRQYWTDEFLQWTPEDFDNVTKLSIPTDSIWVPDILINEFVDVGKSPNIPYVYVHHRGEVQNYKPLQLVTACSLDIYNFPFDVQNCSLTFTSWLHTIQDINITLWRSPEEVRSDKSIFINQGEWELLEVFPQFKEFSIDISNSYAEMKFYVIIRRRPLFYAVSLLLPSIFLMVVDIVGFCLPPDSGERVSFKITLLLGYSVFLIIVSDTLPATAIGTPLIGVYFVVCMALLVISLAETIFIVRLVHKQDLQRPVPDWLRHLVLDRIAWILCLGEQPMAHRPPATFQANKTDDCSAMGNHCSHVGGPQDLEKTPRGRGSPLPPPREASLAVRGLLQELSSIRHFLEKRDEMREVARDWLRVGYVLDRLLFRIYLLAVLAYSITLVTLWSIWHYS
Assay: 5-HT3 receptor binding affinity (inhibition of [^3 H]-GR65630 binding)
Conditions: 10^-7 M; membrane fraction from rat N1E-115 cells; read-out: Binding inhibitory ratio of [^3 H]-GR65630 at 10^-7 M
attribute_measured: inhibition at 0.1 µM (%)

• C=CC[N+]1(C)CCN(c2nc3ccc(O)cc3o2)CC1 = 51.6

I. C[N+]1(CCO)CCN(c2nc3ccccc3o2)CC1.[I-]
II. OCCN1CCCN(c2nc3ccccc3o2)CC1
Problem: Of I and II , which shows the smaller inhibition at 0.1 µM value? API: response body contains the label of the selected item.
Solution: II
